These measurements were taken from the NIST ThermoML archive (doi:10.1021/je500420g).

Test: xn = mol fraction of the nth substance listed
Settings: 303.15 K; 100 kPa; Liquid; Vibrating tube method; x1 = 0.03
Outcome Measure: mass density (kg/m3)

Incoming: What mass density value was documented for this compound, [I-].[Rb+] [rubidium iodide (RbI)] + O ?
Outgoing: 1254.2

Incoming: What mass density value was documented for this compound, [I-].[Na+] [sodium iodide] + O ?
Outgoing: 1181.8

Incoming: What mass density value was documented for this compound, [Cs+].[I-] [cesium iodide] + O ?
Outgoing: 1314.9

Incoming: What mass density value was documented for this compound, [Cl-].[Li+] [lithium chloride] + O ?
Outgoing: 1035.7

Incoming: What mass density value was documented for this compound, [Br-].[Rb+] [rubidium bromide] + O ?
Outgoing: 1199.7

Incoming: What mass density value was documented for this compound, [Cs+].[F-] [cesium fluoride (CsF)] + O ?
Outgoing: 1206.2

Incoming: What mass density value was documented for this compound, [Cl-].[Cs+] [cesium chloride] + O ?
Outgoing: 1203.6

Incoming: What mass density value was documented for this compound, [Br-].[Li+] [lithium bromide] + O ?
Outgoing: 1098

Incoming: What mass density value was documented for this compound, [Br-].[Cs+] [cesium bromide] + O ?
Outgoing: 1262.8

Incoming: What mass density value was documented for this compound, [I-].[K+] [potassium iodide] + O ?
Outgoing: 1189.3

Incoming: What mass density value was documented for this compound, [I-].[Li+] [lithium iodide] + O ?
Outgoing: 1156.3

Incoming: What mass density value was documented for this compound, [F-].[Rb+] [rubidium fluoride (RbF)] + O ?
Outgoing: 1146.5

Incoming: What mass density value was documented for this compound, [F-].[K+] [potassium fluoride] + O ?
Outgoing: 1077

Incoming: What mass density value was documented for this compound, [Br-].[K+] [potassium bromide] + O ?
Outgoing: 1133.7

Incoming: What mass density value was documented for this compound, [Cl-].[Rb+] [rubidium chloride] + O ?
Outgoing: 1139.8

Incoming: What mass density value was documented for this compound, [Cl-].[Na+] [sodium chloride] + O ?
Outgoing: 1062.4

Incoming: What mass density value was documented for this compound, [Br-].[Na+] [sodium bromide] + O ?
Outgoing: 1125.2

Incoming: What mass density value was documented for this compound, [Cl-].[K+] [potassium chloride] + O ?
Outgoing: 1071.2
